# System: Trichoderma viride
# Test Details: Antimicrobial activity against Trichoderma viride NCIM 1195 at 500 ug/disk after 72 hrs by disk diffusion method
# Assay type: functional
# Details: NCIM 1195, 72 h, read-out: DIZ
Property Label: zone of inhibition at 500 µg/disc (mm)
// return numeric value only (unit: mm, not printed)

Below, 2 compounds whose answers are already recorded.
Compound	zone of inhibition at 500 µg/disc (mm)
CC1(C)CC(=O)C2=C(C1)Nc1c(ccc3ccccc13)C2c1cccc([N+](=O)[O-])c1 (stereo not drawn)	10
O=C1CCCC2=C1C(c1ccccc1Cl)c1ccc3ccccc3c1N2 (stereo not drawn)	9

Could you now consider this next compound?
Can you share its zone of inhibition at 500 µg/disc? I mean this compound: CC1(C)CC(=O)C2=C(C1)Nc1c(ccc3ccccc13)C2c1cccc(Cl)c1 (stereo not drawn) 10
